# assay.notes: probe aLefty2 binding to arrayed compounds – biochemical, biotinylated probe, 635/667 nm fluorescence, primary screen (AID 1094);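 also: score merges spot fluorescence near 667 nm with spot signal-to-noise ratio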
# particulars: small-molecule microarray, higher = more signal
measured.endpoint: composite z-score

[[record]]
molecule = "COc1ccc(CCNC(=O)[C@@]2(Sc3ccc(C)cc3)CC(=O)N(Cc3ccccc3C(F)(F)F)[C@@H]2c2ccc(CO)cc2I)cc1"
value_observed = -0.0668

[[record]]
molecule = "CN(C)CCCCCCNC(=O)[C@@H]1C[C@@H]2C(=O)N3CCC[C@H]3C(=O)N2[C@@H]1c1cccc(OCCO)c1"
value_observed = -0.0664

[[record]]
molecule = "CC(C)[Si](C#CCCCC#N)(O[C@H](c1ccccc1)c1cn(Cc2ccccc2)nn1)C(C)C"
value_observed = -0.119


Consider now this further compound.
Input line: Input "CCOC(=O)C[C@H]1[C@H](OC(=O)Cc2ccc3c(c2)OCO3)[C@@H](NC(=O)c2ccc3ccccc3n2)c2cc(OCCCO)ccc2N1C(=O)c1ccc2ccccc2n1" , output reported composite z-score.
Output line: -0.0708

* * *

Listed here are molecules together with their documented z-score.
# assay.notes: resazurin metabolic signal in A549 cells – cell-based, resazurin fluorescence, 24 h, PK04 Diversity Set, profiling panel (AID 1171); also: test concentration not given here
# particulars: A549 viability, higher = more signal, called active from +8 up or from −8 down
Active and inactive are the calls of the source.

[[record]]
molecule = "C[C@@H]1NC(=O)[C@@H](Cc2ccccc2)NC(=O)[C@@]23C(=O)N[C@@H](Cc4ccccc4)C2[C@H](C)[C@@]2(C)O[C@H]2C3/C=C/C/C=C\\CNC1=O (stereo partly drawn)"
value_observed = "-0.879 (inactive)"

[[record]]
molecule = "COCCOC(=O)N1C(=O)[C@@]2(c3cc(C#CC4=CCCCC4)ccc31)[C@H](c1ccccc1OCCO)N1[C@H](c3ccccc3)[C@H](c3ccccc3)OC(=O)[C@H]1[C@@H]2C(=O)NC[C@H](O)c1ccccc1"
value_observed = "-1.59 (inactive)"


Consider now this further molecule.
Input line: Input C=CCC(OC(C)=O)[C@@H]1[C@@H](N(Cc2ccc(-c3cccc(C(F)(F)F)c3)o2)C(=O)Cc2ccc(OC)cc2)c2cc(OCCCO)ccc2N1C(=O)c1ccc(-c2ccccc2)cc1 (stereo partly drawn) , output reported z-score.
Output line: -1.71 (inactive)

* * *

Listed here are compounds together with their documented composite z-score.
# System: glycogen synthase kinase-3 (GSK3A per assay name; protocol says GSK3B)
# assay.notes: compounds binding glycogen synthase kinase-3 – biochemical, small-molecule microarray, 635 nm fluorescence, GSK3A, primary screen (AID 1103); also: the record names both GSK3A and GSK3B
# particulars: fluorescence 635 nm, higher = more signal
Lab note: write the figure by itself, no unit.

The following compounds have reported results that may help.
[[record]]
compound = "CC(C)c1ccc(NN2C(C(O)c3ccc(F)cc3)C=CC3C(=O)N(c4ccccc4)C(=O)C32)cc1 (centres undefined)"
value_observed = 0.275

[[record]]
compound = "CC[C@@H]1C=C(C(=O)O)[C@H](c2ccc(C#N)cc2)N1S(=O)(=O)c1ccc(C)cc1"
value_observed = 0.39

[[record]]
compound = "CCCNC(=O)[C@@]1(Sc2ccc(C)cc2)CC(=O)N(C2Cc3ccccc3C2)[C@@H]1c1ccc(CO)cc1I"
value_observed = -0.0794


Input line: Input "CCOC(=O)C[C@H]1[C@H](OC(=O)c2ccccc2-c2ccccc2)[C@@H](NC(=O)c2ccc3ccccc3c2)c2cc(OCCCO)ccc2N1C(=O)c1ccccc1" , output reported composite z-score.
Output line: 0.601

* * *

# study.system: Torsin-1A (Homo sapiens)
# assay.notes: torsin A mutant lysate binding on microarrays – cell lysate, small-molecule microarray, COS7 lysate, 635/667 nm fluorescence, primary screen (AID 1150);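 also: score pools 667 nm emission and signal to noise measuring lysate protein binding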
# particulars: COS7 hTOR1A mutant lysate, 635 nm fluorescence, higher = more signal
Output label 1 for composite z-score not less than 0.2; output label 0 otherwise.

Field: example entries. Status: answers known.
[[record]]
molecule = "COc1cc2c(cc1O)C(C1CC1)N(Cc1cccc(OC(F)(F)F)c1)CC2 (stereo not drawn)"
study_system = "Torsin-1A (Homo sapiens)"
assigned_label = "label 1"

[[record]]
molecule = "COc1cc(NN2C(C(O)c3cc(OC)c(OC)c(OC)c3)C=CC3C(=O)N(C)C(=O)C32)cc(OC)c1OC (stereo not drawn)"
study_system = "Torsin-1A (Homo sapiens)"
assigned_label = "label 1"

[[record]]
molecule = "COc1cc(NN2C(C(O)c3ccc(N(C)C)cc3)C=CC3C(=O)N(c4ccccc4)C(=O)C32)cc(OC)c1OC (stereo not drawn)"
study_system = "Torsin-1A (Homo sapiens)"
assigned_label = "label 1"


Input line: Hi, just wondering whether "[N-]=[N+]=NCc1ccccc1[C@@H]1OC(c2ccc(OCCCO)cc2)=N[C@]1(CCS(=O)(=O)c1ccccc1)C(=O)O" shows composite z-score of 0.2 or higher.
Output line: label 1

Input line: Hi, just wondering whether "C=C[C@@H](OC)[C@H](OC(=O)Nc1ccc(OC)cc1)c1ccc(O)c(F)c1" shows composite z-score of 0.2 or higher.
Output line: label 0

Input line: Hi, just wondering whether "COc1ccc([C@H]2OC[C@@H]3C[C@H](Cc4ccccc4)C(=O)N32)cc1" shows composite z-score of 0.2 or higher.
Output line: label 0

Input line: Hi, just wondering whether "C=CCN1C(=O)[C@]2(CCC(=O)OC(C)(C)C)N=C(c3ccc(OCCCO)cc3)O[C@@H]2c2ccccc21" shows composite z-score of 0.2 or higher.
Output line: label 0

* * *

# Tested on: Sonic hedgehog protein (Shh)
# assay.notes: Sonic hedgehog microarray binding compounds – biochemical, small-molecule microarray, 635/667 nm fluorescence, primary screen (AID 1151);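 also: Shh protein binding to compounds spotted on small-molecule microarray slides; score combines spot fluorescence intensity with signal-to-noise across triplicate slides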
# particulars: 635 nm fluorescence, higher = more signal
Listed here are compounds together with their documented composite z-score.
Lab note: write the figure by itself, no unit.

The following compounds have reported results that may help.
[[record]]
compound = "CCCCCC1=C2CNC(C)(C(=O)OC)C=C2C(C)C1=O (stereo not given)"
measured_endpoint = "composite z-score"
value_observed = -0.134

[[record]]
compound = "COCCOC(=O)N1C(=O)[C@@]2(c3cc(C#CCNC(N)=O)ccc31)[C@H](C(N)=O)[C@H]1C(=O)O[C@H](c3ccccc3)[C@H](c3ccccc3)N1[C@@H]2c1ccccc1OCCO"
measured_endpoint = "composite z-score"
value_observed = 0.878

[[record]]
compound = "O=C1OCCC=C[C@H]2OC34C=CCN(Cn5nnc6ccccc65)C(=O)[C@H]3N(CCCO)C(=O)[C@@H]4C12 (stereo not given in full)"
measured_endpoint = "composite z-score"
value_observed = -0.128


Input line: Input "COC(=O)[C@@]1(Cc2ccc(F)cc2)[C@H]2c3cc(C(=O)N(C)C)n(CCc4ccc(OC)c(Br)c4)c3C[C@H]2CN1C(=O)c1ccccc1" , output reported composite z-score.
Output line: -1.09

Input line: Input "CCOC(=O)C1=CC[C@@H](c2ccccc2F)N(S(=O)(=O)c2ccc(C)cc2)[C@H]1c1ccccc1" , output reported composite z-score.
Output line: 0.649

Input line: Input "CCCNC(=O)[C@@]1(C)c2ccccc2C(=O)N(c2ccc(C)cn2)[C@H]1c1ccc(CO)cc1" , output reported composite z-score.
Output line: 0.224

Input line: Input CC(c1ccccc1)C(O)C1C=CC2C(=O)N(C)C(=O)C2N1Nc1ccccc1 (stereo not given) , output reported composite z-score.
Output line: -0.353

* * *

# assay.notes: inhibition of PAO1 biofilm formation – strain PAO1, LB-PBS medium, absorbance 600 nm, primary screen (AID 1176); also: test concentration not given here
# particulars: P. aeruginosa PAO1 growth/biofilm, A600, 12 h; higher = more signal
Calls of active or inactive are those of the source. The rule behind the calls is not given here.
Listed here are molecules together with their documented z-score.

Input line: Input "COCCOC(=O)N1C(=O)[C@@]2(c3cc(C#CC4=CCCCC4)ccc31)[C@H](C(=O)Nc1nc3ccccc3s1)[C@H]1C(=O)O[C@H](c3ccccc3)[C@H](c3ccccc3)N1[C@@H]2c1ccc(O)cc1" , output reported z-score.
Output line: 0.766 (inactive)

Input line: Input C=CCC(OC(C)=O)[C@@H]1[C@@H](N(Cc2cccc3ccccc23)C(=O)Cc2ccc(F)cc2)c2cc(OCCCO)ccc2N1C(=O)c1ccc2ccccc2c1 (some centres not stated) , output reported z-score.
Output line: -0.0057 (inactive)

Input line: Input "NC(=O)NCC#Cc1ccc2c(c1)[C@]1(C(=O)N2)[C@H](C(=O)N2CCN(c3ncccn3)CC2)[C@H]2C(=O)O[C@H](c3ccccc3)[C@H](c3ccccc3)N2[C@@H]1c1ccc(O)cc1" , output reported z-score.
Output line: 1.16 (inactive)

Input line: Input COc1cc2c(cc1O)C(c1ccc(CN3CCCC3)cc1)N(Cc1cc3c(cc1Br)OCO3)CC2 (configuration not stated) , output reported z-score.
Output line: -0.0218 (inactive)

Input line: Input CC(=O)N1CC2(CC2)CC1c1ccccc1 (configuration not stated) , output reported z-score.
Output line: 0.535 (inactive)

Input line: Input CCCCCCCCCCC(O)C1C=CC2C(=O)N(c3ccccc3)C(=O)C2N1Nc1ccc(C#N)cc1 (configuration not stated) , output reported z-score.
Output line: 0.571 (inactive)

Input line: Input "C=C[C@H](C)[C@H](OC(=O)Nc1ccc(SC)cc1)c1ccc(OCCO)cc1" , output reported z-score.
Output line: 1.15 (inactive)
